# assay_overview: chemical genetic growth profiling, strain panel (AID 1159580);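 also: tested at 20 µM; growth read once vehicle control cultures reached saturation at 30 °C; 1 = growth at the plate median or of vehicle wells; lower values mean less growth of the strain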
# run_conditions: S. cerevisiae deletion strains, growth OD, locus YLR113W, strain HOG1, hits give low values
Screen size: about 5,500 compounds; about 2,000 (36%) were called active. About 18% were inconclusive and are not listed. The list shows a part of the results.
outcome_measure: normalized growth
Just the number, please.

Known results for molecules:
- molecule: "COP(=S)(OC)Oc1ccc(Sc2ccc(OP(=S)(OC)OC)cc2)cc1"
  outcome_measure: "normalized growth"
  quantitative_result: 0.977
- molecule: "Cc1cc(/C=C/c2ccc3cc(N(C)C)ccc3[n+]2C)c(C)n1-c1ccccc1"
  outcome_measure: "normalized growth"
  quantitative_result: 1.02
- molecule: "Cc1cc(CC(=O)O)n(C)c1C(=O)c1ccc(Cl)cc1"
  outcome_measure: "normalized growth"
  quantitative_result: 1.01
- molecule: "NCC[C@@H](O)C(=O)N[C@@H]1C[C@H](N)[C@@H](O[C@H]2O[C@H](CN)[C@@H](O)[C@H](O)[C@H]2O)[C@H](O)[C@H]1O[C@H]1O[C@H](CO)[C@@H](O)[C@H](N)C1O (stereo not given in full)"
  outcome_measure: "normalized growth"
  quantitative_result: 1.03
- molecule: "COc1ccc(Nc2nc(NC(=O)Nc3ccc(Cl)cc3)n[nH]2)cc1"
  outcome_measure: "normalized growth"
  quantitative_result: 0.813

Query normalized growth for C[C@H]1C[C@@H](O)[C@]2(O)[C@@]13CC(=O)OC[C@@]2(C)[C@](C)(O)C(=O)C3
1.07

Answer with reported normalized growth of O=C(O)C1CCCNC1 (stereo not given)
1.05

Answer with reported normalized growth of Cc1c[nH]c2ccccc12
0.945

Answer with reported normalized growth of CCCCC(=O)O[C@]1(C(=O)CO)CCC2C3CCC4=CC(=O)CC[C@]4(C)C3[C@@H](O)C[C@@]21C (stereo not given in full)
0.986

Please report normalized growth for the following molecule: COc1ccnc(CS(=O)c2nc3ccc(OC(F)F)cc3[nH]2)c1OC (stereo not given)
0.926

###

# assay_overview: chemical genetic growth profiling, strain panel (AID 1159580)
# run_conditions: S. cerevisiae deletion strains, growth OD, locus YLR102C, strain apc9
In all, about 5,500 compounds went through this assay and about 2,000 (36%) were called active. Inconclusive results (about 18%) are left out. Cut-off read from the data, not from the text of the source: active = normalized growth mostly below about 0.91 (no sharp cut-off); inconclusive = no clear call, values can overlap the other calls; inactive = mostly above about 0.92. This is one part of the list.
Could you please pick one outcome from this set? t (active), f (inactive)

- molecule: "CC1(C)C(=O)[C@@H]2O[C@@H]2[C@@]2(C)C1C[C@@H](O)[C@]1(C)C2CC[C@@]2(C)[C@H](c3ccoc3)OC(=O)C3OC321 (stereo partly drawn)"
  class_label: "f"
- molecule: "Cc1ccc(C(=O)c2ccc(CC(=O)O)n2C)cc1"
  class_label: "f"
- molecule: "NC1(C(=O)O)CCC1"
  class_label: "f"
- molecule: "N[C@@H](C(=O)O)[C@@H](O)[C@H](O)[C@H](O)CO"
  class_label: "f"
- molecule: "Clc1ccc(C(c2ccccc2Cl)C(Cl)Cl)cc1 (stereo not drawn)"
  class_label: "f"
- molecule: "CCCn1c(=O)c2[nH]c(C3CCCC3)nc2n(CCC)c1=O"
  class_label: "f"

Turning now to a further record.
// return assay outcome for Cc1cccc(C)c1NC(=O)C1CCCCN1C (stereo not drawn)
f

###

# assay_overview: chemical genetic growth profiling, strain panel (AID 1159580);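 also: tested at 20 µM; growth read once vehicle control cultures reached saturation at 30 °C; 1 = growth at the plate median or of vehicle wells; lower values mean less growth of the strain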
# run_conditions: S. cerevisiae deletion strains, growth OD, locus YOR083W, strain WHI5, hits give low values
The whole screen tested about 5,500 compounds, of which about 2,000 (36%) were called active. Not shown: some 18% with an inconclusive outcome. The list shows a part of the results.
outcome_measure: normalized growth
Please respond with just the number, no unit label.

// below: answered compounds
- compound: "COc1ccc(-c2oc3cc(OC)c(OC)c(OC)c3c(=O)c2OC)cc1"
  outcome_measure: "normalized growth"
  quantitative_result: 0.915
- compound: "COc1ccc(-c2oc3cc(OC)c(OC)c(OC)c3c(=O)c2OC)cc1OC"
  outcome_measure: "normalized growth"
  quantitative_result: 0.998
- compound: "COc1ccc2oc3ccccc3c(=O)c2c1"
  outcome_measure: "normalized growth"
  quantitative_result: 0.789
- compound: "Cc1onc(-c2ccccc2)c1-c1ccc(S(N)(=O)=O)cc1"
  outcome_measure: "normalized growth"
  quantitative_result: 0.997

Item CC(=O)O[C@H]1C[C@@]2(C)[C@@H](C[C@@H](O)C3[C@]2(C)CC[C@H]2[C@H](C)[C@H](O)CC[C@]32C)/C1=C(/CCC=C(C)C)C(=O)O (stereo not given in full) : provide normalized growth
1.06

###

Reported normalized growth values for the following molecules.
# assay_overview: chemical genetic growth profiling, strain panel (AID 1159580);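 also: tested at 20 µM; growth read once vehicle control cultures reached saturation at 30 °C; 1 = growth at the plate median or of vehicle wells; lower values mean less growth of the strain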
# run_conditions: S. cerevisiae deletion strains, growth OD, locus YMR125W, strain sto1, hits give low values
Out of some 5,500 compounds screened, about 2,000 (36%) were called active. Not shown: some 18% with an inconclusive outcome. The list shows a part of the results.
The reply should be a number, written without any unit.

- molecule: "C=C1C(=O)[C@]23[C@H](O)[C@H]1CC[C@H]2[C@@]12CO[C@]3(O)[C@H](O)[C@@H]1C(C)(C)CC[C@@H]2O"
  normalized growth: 1.02
- molecule: "CC1[C@H](C)OC(=O)CC(O)CC(O)CC(O)CCC(O)C(O)C[C@]2(O)CC(O)C(C(=O)O)C(CC(OC3O[C@H](C)[C@@H](O)[C@H](N)[C@@H]3O)/C=C/C=C/C=C/C=C/CC/C=C/C=C/[C@H](C)[C@H]1O)O2 (stereo partly drawn)"
  normalized growth: 0.112

State its normalized growth: CCCNC(=O)NS(=O)(=O)c1ccc(Cl)cc1
1

Give normalized growth for NC(C(=O)O)C(O)C(=O)O (stereo not drawn)
0.95

Retrieve normalized growth measured for CC1C/C=C/C=C/C=C/C=C/C(O[C@@H]2O[C@H](C)[C@@H](O)[C@H](N)[C@@H]2O)CC2OC(O)(CC(O)CC3OC3/C=C/C(=O)O1)CC(O)C2C(=O)O (stereo partly drawn) and print it.
0.0829

Identify measured normalized growth corresponding to CC(C)(S)[C@@H](N)C(=O)O
1

For the molecule CC(=O)C1CC[C@H]2C3CC[C@H]4C[C@H](O)CC[C@]4(C)C3CC[C@]12C (stereo partly drawn) , give its measured normalized growth value.
0.998

Give the value of normalized growth reported for the following: CCCCCCCCCCCCCC(=O)OC1C(C)C2(O)C(C=C(CO)CC3(O)C(=O)C(C)=CC32)C2C(C)(C)C12OC(C)=O (stereo not drawn)
0.993

###

# assay_overview: chemical genetic growth profiling, strain panel (AID 1159580);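 also: tested at 20 µM; growth read once vehicle control cultures reached saturation at 30 °C; 1 = growth at the plate median or of vehicle wells; lower values mean less growth of the strain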
# run_conditions: S. cerevisiae deletion strains, growth OD, locus YPR119W, strain clb2, hits give low values
Among all 5,500 compounds or so, about 2,000 (36%) were called active. Inconclusive results (about 18%) are left out. The list shows a part of the results.
outcome_measure: normalized growth
Enter the number alone.

Please report the measured normalized growth for O=C(O)C(O)C(O)C(O)C(O)C(=O)O (stereo not drawn)
0.986

Please report normalized growth for the following compound: NC(C(=O)O)C(O)C(=O)O (stereo not drawn)
1.02

Respond only with normalized growth recorded for CN(C)CCC(c1ccccc1)c1ccccn1 (stereo not drawn)
1

Hello, please tell me recorded normalized growth for this one: C=NC(C(=O)NC1C(=O)N2C1SC(C)(C)C2C(=O)O)c1ccccc1 (stereo not drawn)
1

State its normalized growth: CC(=O)O[C@H]1C[C@@H](OC(C)=O)C(C)(C)C2C[C@@H](O)[C@]3(C)C(CC[C@@]4(C)[C@H](c5ccoc5)OC(=O)[C@H]5O[C@]543)[C@]21C (stereo partly drawn)
0.998

Quick one: give measured normalized growth for CC(=O)O[C@@H]1CC2C(C)(C)C(=O)C3OC3[C@]2(C)C2CC[C@@]3(C)[C@H](c4ccoc4)OC(=O)C4OC43[C@@]21C (stereo partly drawn)
0.996

Note down normalized growth recorded for N[C@@H](C(=O)O)[C@@H](O)[C@H](O)[C@H](O)CO
1.02

Please report the measured normalized growth for CC1(C)C(=O)[C@@H]2O[C@@H]2[C@@]2(C)C1C[C@@H](O)[C@]1(C)C2CC[C@@]2(C)[C@H](c3ccoc3)OC(=O)C3OC321 (stereo partly drawn)
0.982

Look up and state reported normalized growth for O=c1cccc2n1CC1CC2CN2CCCC[C@@H]12 (stereo partly drawn)
0.976

Provide one value: measured normalized growth of CC(=O)O[C@@H]1CC2C(C)(C)[C@H](O)CC[C@]2(C)C2CC[C@@]3(C)[C@H](c4ccoc4)OC(=O)C4OC43[C@@]21C (stereo partly drawn)
0.992

Check the records and state normalized growth for NC(=O)NC1NC(=O)NC1=O (stereo not drawn)
0.982

Annotate the compound CC(=O)O[C@@H]1CC2C(C)(C)[C@H](O)CC[C@]2(C)C2CC[C@@]3(C)[C@H](c4ccoc4)OC(=O)[C@H]4O[C@]43[C@@]21C (stereo partly drawn) with its measured normalized growth.
1.01

Complete the entry with normalized growth for Clc1ccc(C(c2ccccc2Cl)C(Cl)Cl)cc1 (stereo not drawn)
0.991

Indicate the recorded normalized growth value for this compound: CC(=O)O[C@H]1C[C@@H](OC(C)=O)C(C)(C)C2C[C@@H](OC(C)=O)[C@]3(C)C(CC[C@@]4(C)[C@H](c5ccoc5)OC(=O)[C@H]5O[C@]543)[C@]21C (stereo partly drawn)
1.01

Given COC(=O)[C@@H]1OC(=O)C2OC23[C@@]1(C)CCC1[C@@]2(C)CCC(=O)C(C)(C)C2C[C@@H](OC(C)=O)[C@]13C (stereo partly drawn) , respond with its normalized growth.
0.993

Answer with the recorded normalized growth for the compound listed here: CC(=O)O[C@H]1CC[C@@]2(C)C(C[C@@H](OC(C)=O)[C@]3(C)C2CC[C@@]2(C)[C@H](c4ccoc4)OC(=O)[C@H]4O[C@]423)C1(C)C (stereo partly drawn)
1.01

Tell us which normalized growth value is on record for O=C(O)C(O)C(O)C(=O)O (stereo not drawn)
0.994

Look up and report measured normalized growth for this entry: CC(C)(S)[C@@H](N)C(=O)O
1

The measurements presented in this section are drawn from PubChem BioAssay AID1159580.
